- System: L1210
- assay.name: Concentration required to inhibit the growth of L1210 cells.
- Type: functional, cell-based
- condition.parameters: Mus musculus
Each entry below carries its reported pIC50.
Keep in mind that pIC50 stands for -log10 of concentration in molar terms.

Field: example entries. Status: answers known.
Nc1nc(N)c2cc(CCc3ccc(C(=O)NC(CCC(=O)O)C(=O)O)cc3)cnc2n1 (centres undefined) ... 7.57
CCc1c(CNc2ccc(C(=O)NC(CCC(=O)O)C(=O)O)cc2)cnc2nc(N)nc(N)c12 (centres undefined) ... 8.72
Cc1c(CNc2ccc(C(=O)NC(CCC(=O)O)C(=O)O)cc2)cnc2nc(N)nc(N)c12 (centres undefined) ... 8.74
CC(Cc1cnc2nc(N)nc(N)c2c1)c1ccc(C(=O)NC(CCC(=O)O)C(=O)O)cc1 (centres undefined) ... 8.12
C=CCN(Cc1cnc2nc(N)nc(N)c2c1C)c1ccc(C(=O)NC(CCC(=O)O)C(=O)O)cc1 (centres undefined) ... 8.47
CCCc1c(CNc2ccc(C(=O)NC(CCC(=O)O)C(=O)O)cc2)cnc2nc(N)nc(N)c12 (centres undefined) ... 8.19
Cc1c(CCc2ccc(C(=O)NC(CCC(=O)O)C(=O)O)cn2)cnc2nc(N)nc(N)c12 (centres undefined) ... 6.20
Cc1c(CN(C)c2ccc(C(=O)NC(CCC(=O)O)C(=O)O)cc2)cnc2nc(N)nc(N)c12 (centres undefined) ... 8.89

Consider now this further compound.
Input line: Which measured pIC50 belongs to CCc1c(CN(C)c2ccc(C(=O)NC(CCC(=O)O)C(=O)O)cc2)cnc2nc(N)nc(N)c12 (centres undefined) , tested on L1210?
Output line: 9.00

* * *

- Tested on: Mus musculus
- assay.name: Tested for antiinflammatory activity on mouse type II collagen arthritis as Paw swelling of all animals in each group on day 44 at intraperitoneal dose of 1.5 mg/kg
- Type: functional
Each entry below carries its reported Paw swelling.
API: value field is a number in mm; no unit string.

CCCCc1c(CNc2ccc(C(=O)NC(CCC(=O)O)C(=O)O)cc2)cnc2nc(N)nc(N)c12 (stereo unspecified) ... 2.27
Cc1c(CN(C)c2ccc(C(=O)NC(CCC(=O)O)C(=O)O)cc2)cnc2nc(N)nc(N)c12 (stereo unspecified) ... 2.44
C=CCN(Cc1cnc2nc(N)nc(N)c2c1C)c1ccc(C(=O)NC(CCC(=O)O)C(=O)O)cc1 (stereo unspecified) ... 2.32
CCCN(Cc1cnc2nc(N)nc(N)c2c1C)c1ccc(C(=O)NC(CCC(=O)O)C(=O)O)cc1 (stereo unspecified) ... 2.22

Input line: What Paw swelling value was documented for this compound, Cc1c(CN(C)c2ccc(C(=O)NC(CCC(=O)O)C(=O)O)s2)cnc2nc(N)nc(N)c12 (stereo unspecified) ?
Output line: 2.33

Input line: What Paw swelling value was documented for this compound, C=CCN(Cc1cnc2nc(N)nc(N)c2c1CC)c1ccc(C(=O)NC(CCC(=O)O)C(=O)O)cc1 (stereo unspecified) ?
Output line: 2.4

Input line: What Paw swelling value was documented for this compound, CCC(Cc1cnc2nc(N)nc(N)c2c1)c1ccc(C(=O)NC(CCC(=O)O)C(=O)O)cc1 (stereo unspecified) ?
Output line: 2.59

Input line: What Paw swelling value was documented for this compound, CCCc1c(CNc2ccc(C(=O)NC(CCC(=O)O)C(=O)O)cc2)cnc2nc(N)nc(N)c12 (stereo unspecified) ?
Output line: 2.15

Input line: What Paw swelling value was documented for this compound, C#CCN(Cc1cnc2nc(N)nc(N)c2c1C)c1ccc(C(=O)NC(CCC(=O)O)C(=O)O)cc1 (stereo unspecified) ?
Output line: 2.37

Input line: What Paw swelling value was documented for this compound, CCc1c(CN(C)c2ccc(C(=O)NC(CCC(=O)O)C(=O)O)s2)cnc2nc(N)nc(N)c12 (stereo unspecified) ?
Output line: 2.37

Input line: What Paw swelling value was documented for this compound, Cc1c(CNc2ccc(C(=O)NC(CCC(=O)O)C(=O)O)cc2)cnc2nc(N)nc(N)c12 (stereo unspecified) ?
Output line: 2.55

* * *

Each entry below carries its reported Animals.
- Tested on: Mus musculus
- assay.name: Incidence of disease (mouse type II collagen) was scored as the percentage of animals within each experimental group that exhibited joint or limb inflammation on day 30 at intraperitoneal dose of 3 mg/kg
- Assay type: functional
API: value field is a number in %; no unit string.

Field: example entries. Status: answers known.
CCCN(Cc1cnc2nc(N)nc(N)c2c1C)c1ccc(C(=O)NC(CCC(=O)O)C(=O)O)cc1 (stereo not given) ... 0
Cc1c(CNc2ccc(C(=O)NC(CCC(=O)O)C(=O)O)cc2)cnc2nc(N)nc(N)c12 (stereo not given) ... 0
Cc1c(CCc2ccc(C(=O)NC(CCC(=O)O)C(=O)O)cc2)cnc2nc(N)nc(N)c12 (stereo not given) ... 100
C=CCN(Cc1cnc2nc(N)nc(N)c2c1CC)c1ccc(C(=O)NC(CCC(=O)O)C(=O)O)cc1 (stereo not given) ... 29

Consider now this further compound.
Input line: What Animals value was documented for this compound, Cc1c(CN(C)c2ccc(C(=O)NC(CCC(=O)O)C(=O)O)s2)cnc2nc(N)nc(N)c12 (stereo not given) ?
Output line: 0

* * *

- Tested on: Mus musculus
- assay.name: Incidence of disease (mouse type II collagen) was scored as the percentage of animals within each experimental group that exhibited joint or limb inflammation on day 30 at intraperitoneal dose of 3 mg/kg
- Type: functional
Label TRUE when Animals is strictly below 10%; otherwise label FALSE.

Solved entries (count: 8):
CCCc1c(CNc2ccc(C(=O)NC(CCC(=O)O)C(=O)O)cc2)cnc2nc(N)nc(N)c12 (centres undefined) ... FALSE
C=CCC(Cc1cnc2nc(N)nc(N)c2c1C)c1ccc(C(=O)NC(CCC(=O)O)C(=O)O)cc1 (centres undefined) ... FALSE
C#CCN(Cc1cnc2nc(N)nc(N)c2c1C)c1ccc(C(=O)NC(CCC(=O)O)C(=O)O)cc1 (centres undefined) ... FALSE
C=CCN(Cc1cnc2nc(N)nc(N)c2c1C)c1ccc(C(=O)NC(CCC(=O)O)C(=O)O)cc1 (centres undefined) ... TRUE
CCC(Cc1cnc2nc(N)nc(N)c2c1)c1ccc(C(=O)NC(CCC(=O)O)C(=O)O)cc1 (centres undefined) ... FALSE
CCCCc1c(CNc2ccc(C(=O)NC(CCC(=O)O)C(=O)O)cc2)cnc2nc(N)nc(N)c12 (centres undefined) ... TRUE
C#CCN(Cc1cnc2nc(N)nc(N)c2c1CC)c1ccc(C(=O)NC(CCC(=O)O)C(=O)O)cc1 (centres undefined) ... FALSE
CCc1c(CN(C)c2ccc(C(=O)NC(CCC(=O)O)C(=O)O)s2)cnc2nc(N)nc(N)c12 (centres undefined) ... TRUE

Input line: In the record for Cc1c(CN(C)c2ccc(C(=O)NC(CCC(=O)O)C(=O)O)cc2)cnc2nc(N)nc(N)c12 (centres undefined) , is Animals less than 10%?
Output line: FALSE

* * *

- System: Mus musculus
- assay.name: Incidence of disease (mouse type II collagen) was scored as the percentage of animals within each experimental group that exhibited joint or limb inflammation on day 44 at intraperitoneal dose of 6 mg/kg
- Format: functional
Label YES when Animals is strictly below 50%; otherwise label NO.

C#CCN(Cc1cnc2nc(N)nc(N)c2c1C)c1ccc(C(=O)NC(CCC(=O)O)C(=O)O)cc1 (configuration not stated) ... NO
C#CCN(Cc1cnc2nc(N)nc(N)c2c1CC)c1ccc(C(=O)NC(CCC(=O)O)C(=O)O)cc1 (configuration not stated) ... YES

Input line: In the record for Nc1nc(N)c2cc(CCc3ccc(C(=O)NC(CCC(=O)O)C(=O)O)cn3)cnc2n1 (configuration not stated) , is Animals less than 50%?
Output line: NO

Input line: In the record for Cc1c(CNc2ccc(C(=O)NC(CCC(=O)O)C(=O)O)s2)cnc2nc(N)nc(N)c12 (configuration not stated) , is Animals less than 50%?
Output line: YES

Input line: In the record for CCC(Cc1cnc2nc(N)nc(N)c2c1)c1ccc(C(=O)NC(CCC(=O)O)C(=O)O)cc1 (configuration not stated) , is Animals less than 50%?
Output line: NO

Input line: In the record for Cc1c(CCc2ccc(C(=O)NC(CCC(=O)O)C(=O)O)cc2)cnc2nc(N)nc(N)c12 (configuration not stated) , is Animals less than 50%?
Output line: NO

* * *

Each entry below carries its reported Paw swelling.
- Tested on: Mus musculus
- assay.name: Tested for antiinflammatory activity on mouse type II collagen arthritis as Paw swelling of all animals in each group on day 30 at intraperitoneal dose of 3 mg/kg
- Assay type: functional

Field: example entries. Status: answers known.
CCCN(Cc1cnc2nc(N)nc(N)c2c1C)c1ccc(C(=O)NC(CCC(=O)O)C(=O)O)cc1 (stereo not given) ... 2.13 mm
CCC(Cc1cnc2nc(N)nc(N)c2c1)c1ccc(C(=O)NC(CCC(=O)O)C(=O)O)cc1 (stereo not given) ... 2.43 mm
CCCc1c(CNc2ccc(C(=O)NC(CCC(=O)O)C(=O)O)cc2)cnc2nc(N)nc(N)c12 (stereo not given) ... 2.24 mm

Input line: Which measured Paw swelling belongs to Cc1c(CN(C)c2ccc(C(=O)NC(CCC(=O)O)C(=O)O)cc2)cnc2nc(N)nc(N)c12 (stereo not given) , tested on Mus musculus?
Output line: 2.26 mm

Input line: Which measured Paw swelling belongs to C=CCN(Cc1cnc2nc(N)nc(N)c2c1CC)c1ccc(C(=O)NC(CCC(=O)O)C(=O)O)cc1 (stereo not given) , tested on Mus musculus?
Output line: 2.27 mm

Every entry's value here was drawn from ChEMBL document CHEMBL1129930.
